# Test system: SK-MEL-2
# TEST_SUMMARY: NCI tumour cell line growth inhibition, 48 h
Activity calls are given as the source filed them. No stated cut-off is given here; in the data, active = GI50 up to about 1.1 µM and inactive = higher.
Outcomes: 1 (active), -1 (inactive)

[
  {
    "COMPOUND": "CC(C)Cn1cnnc1NS(=O)(=O)c1cc(C(=O)NN)c(Cl)cc1S",
    "DISCRETE_LABEL": -1
  },
  {
    "COMPOUND": "CNc1nc(N)c(N=O)c(Nc2ccc(Br)cc2)n1",
    "DISCRETE_LABEL": -1
  },
  {
    "COMPOUND": "CCOc1cc2c(cc1O)C=C[C@@H]1[C@@H]2CC[C@]2(C)[C@@H](O)CC[C@@H]12",
    "DISCRETE_LABEL": -1
  },
  {
    "COMPOUND": "COC(=O)/C(C#N)=C1\\CCC(OC)N1C (stereo unspecified)",
    "DISCRETE_LABEL": -1
  },
  {
    "COMPOUND": "NCc1ccc(-c2ccc(CN)s2)s1",
    "DISCRETE_LABEL": -1
  },
  {
    "COMPOUND": "O=[N+]([O-])C(=C(N1CCOCC1)N1CCOCC1)/C(Cl)=C(\\Cl)Br",
    "DISCRETE_LABEL": -1
  },
  {
    "COMPOUND": "CC(=O)Nc1ccc(C2C(C(=O)Nc3ccccc3)=C(C)NC(C)=C2C(=O)Nc2ccccc2)cc1",
    "DISCRETE_LABEL": -1
  },
  {
    "COMPOUND": "BrC12C3C4C5C(C(C43)C13OCCO3)C52 (stereo unspecified)",
    "DISCRETE_LABEL": -1
  },
  {
    "COMPOUND": "O=S1(=O)OCCOS(=O)(=O)C1(Br)Br",
    "DISCRETE_LABEL": -1
  },
  {
    "COMPOUND": "NC1=NS(=O)(=O)N=C(N)C1=Cc1ccc([N+](=O)[O-])o1",
    "DISCRETE_LABEL": -1
  },
  {
    "COMPOUND": "C1CN(P2(N3CC3)=NP(N3CC3)(N3CC3)=NP(N3CC3)(N3CC3)=N2)CCO1 (stereo unspecified) [FOTRETAMINE]",
    "DISCRETE_LABEL": -1
  },
  {
    "COMPOUND": "COc1cc([C@@H]2c3cc4c(cc3[C@@H](Nc3ccc(C(=O)N[C@H]5CCc6cc(OC)c(OC)c(OC)c6-c6ccc(SC)c(=O)cc65)cc3)[C@H]3COC(=O)[C@H]23)OCO4)cc(OC)c1O",
    "DISCRETE_LABEL": 1
  },
  {
    "COMPOUND": "Cc1ccc(-c2c(C#N)c(-c3ccc(Cl)cc3)c(C#N)c(=O)n2NS(=O)(=O)c2ccccc2)cc1",
    "DISCRETE_LABEL": -1
  },
  {
    "COMPOUND": "O=S(=O)(O)c1cc(S(=O)(=O)O)c2c(/N=N/c3ccc(/N=N/c4ccccc4)cc3)c(O)ccc2c1",
    "DISCRETE_LABEL": -1
  },
  {
    "COMPOUND": "O=C(O)[C@H](NS(=O)(=O)c1ccc2ccccc2c1)c1ccccc1",
    "DISCRETE_LABEL": -1
  },
  {
    "COMPOUND": "O=C1CCC[C@H]2O[C@@H](COC(=O)c3ccccc3)C[C@H]2O1",
    "DISCRETE_LABEL": -1
  },
  {
    "COMPOUND": "Cc1ccc(OCC2OC(n3cnc4c(N(C)C)nc(Br)nc43)CC2Oc2ccc(C)cc2)cc1 (stereo unspecified)",
    "DISCRETE_LABEL": -1
  },
  {
    "COMPOUND": "O=c1[nH]c(=O)n([C@H]2CCCO2)cc1F",
    "DISCRETE_LABEL": -1
  },
  {
    "COMPOUND": "CC1(C)C=Cc2c(cc3oc4ccc5c(c4c(=O)c3c2O)C=CC(C)(C)O5)O1",
    "DISCRETE_LABEL": -1
  },
  {
    "COMPOUND": "O=C1/C(=C/c2ccc(O)cc2)NC(=S)N1CN1CCCCC1",
    "DISCRETE_LABEL": -1
  },
  {
    "COMPOUND": "Nc1cc(CO)cc(Nc2nc3ccc(Cl)cc3c3[nH]c4ccccc4c23)c1",
    "DISCRETE_LABEL": -1
  },
  {
    "COMPOUND": "CC1(C)CC(=O)c2c(nc3ccc4ccccc4c3c2-c2ccc(NC(=O)CCCCCCCCC(=O)Nc3ccc(-c4c5c(nc6ccc7ccccc7c46)CC(C)(C)CC5=O)cc3)cc2)C1",
    "DISCRETE_LABEL": -1
  },
  {
    "COMPOUND": "C[C@@H]1S[C@H](c2c(Cl)cccc2Cl)N2Cc3ccccc3N=C12",
    "DISCRETE_LABEL": -1
  },
  {
    "COMPOUND": "CC1(C)N=C(/C=N/O)C(C)(C)N1O",
    "DISCRETE_LABEL": -1
  },
  {
    "COMPOUND": "COc1ccc(-n2c3c(c4cc(O)ccc42)C(=O)c2ccccc2C3=O)cc1",
    "DISCRETE_LABEL": -1
  },
  {
    "COMPOUND": "C1=C(c2ccccc2)SC(N2CCCCC2)S1 (stereo unspecified)",
    "DISCRETE_LABEL": -1
  },
  {
    "COMPOUND": "CC(=O)OC1CC[C@@]2(C)C(=CC[C@@H]3[C@@H]2CC[C@]2(C)C(OC(C)=O)[C@H](n4ccnc4)C[C@@H]32)C1 (stereo partly specified)",
    "DISCRETE_LABEL": -1
  },
  {
    "COMPOUND": "O=[N+]([O-])c1cccc2nccc(NCCN3CCOCC3)c12",
    "DISCRETE_LABEL": -1
  },
  {
    "COMPOUND": "CO/C(=C/C(=O)C(Cl)(Cl)Cl)CC/C(=C\\C(=O)C(Cl)(Cl)Cl)OC",
    "DISCRETE_LABEL": -1
  },
  {
    "COMPOUND": "CP(C)(=S)P(C)(C)=S",
    "DISCRETE_LABEL": -1
  },
  {
    "COMPOUND": "CCCCCCCCCCC/C=C(/C(=O)CCCO[Si](C)(C)C(C)(C)C)C(=O)OC",
    "DISCRETE_LABEL": -1
  },
  {
    "COMPOUND": "COc1cc(/C=N/c2ccc(Oc3ccc(Cl)cc3)c(Cl)c2)cc(OC)c1OC",
    "DISCRETE_LABEL": -1
  },
  {
    "COMPOUND": "COc1cccc(C2SC(=N)Nc3c2c(C)nn3C(=O)c2ccccc2O)c1 (stereo unspecified)",
    "DISCRETE_LABEL": -1
  },
  {
    "COMPOUND": "COC(=O)C1=NN2c3ccccc3C(=O)OCCC2C1 (stereo unspecified)",
    "DISCRETE_LABEL": -1
  },
  {
    "COMPOUND": "CN1N=C(N)c2cn(C3OC(COP(=O)(O)O)C(O)C3O)c3ncnc1c23 (stereo unspecified)",
    "DISCRETE_LABEL": -1
  },
  {
    "COMPOUND": "C[C@H]1[C@H](N2CCCC2)O[Si](C(C)(C)C)(C(C)(C)C)[C@@H]1C",
    "DISCRETE_LABEL": -1
  }
]
